target-desc: T1, MBP-FPARRM-His (three RRM domains of FPA) (Arabidopsis thaliana, UniProt Q8LPQ9 1-307)
T1 sequence: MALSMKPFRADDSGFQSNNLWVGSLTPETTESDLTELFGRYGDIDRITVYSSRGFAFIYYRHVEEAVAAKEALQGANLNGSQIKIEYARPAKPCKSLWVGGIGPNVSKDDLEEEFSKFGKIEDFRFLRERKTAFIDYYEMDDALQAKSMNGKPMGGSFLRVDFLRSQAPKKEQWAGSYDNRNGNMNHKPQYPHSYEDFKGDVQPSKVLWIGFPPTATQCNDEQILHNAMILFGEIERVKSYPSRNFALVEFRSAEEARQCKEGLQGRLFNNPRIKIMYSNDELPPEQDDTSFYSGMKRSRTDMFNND
test-details: ITC; 25 C, 150 mM NaCl, pH 8.0; EMSA: 10 mM HEPES-KOH pH 7.3, 20 mM KCl, 1 mM MgCl2, 1 mM DTT, 5% glycerol, 0.1 ug/uL tRNA, room temperature 30 min (protein eluted with 200 mM imidazole); ITC: 10 mM HEPES-KOH pH 8.0, 150 mM NaCl, 200 mM imidazole, 25 C
run-parameters: protein: recombinant; tags: MBP (pMAL-c2x), 6xHis
reported-metric: Kd

Query string: Item GAAGAGAAGAAGAGAAGAAGAGAA (ssRNA) [GA-rich RNA (unlabeled; ITC and competitor)] has what recorded Kd?
Result string: ~20 µM
